# Tested on: SHI-1
# Experimental Protocol: cell viability (% survival relative to DMSO control, bortezomib = 0%); higher = less cytotoxic
# Experimental Conditions: 10 nM; 72 h
Reported Endpoint: cell viability (%)
# number only, unit % dropped from output

So for "Cc1coc2c1C(=O)C(=O)c1c-2ccc2c(C)cccc12" , the logged cell viability turned out to be 88.4

Notebook: "O=C(O)C(S)=Cc1c[nH]c2ccc(F)cc12" , cell viability read as 97.6

Short answer for Clc1ccc(COC(Cn2ccnc2)c2ccc(Cl)cc2Cl)cc1 (stereo not given) : cell viability was 91

get_value(item= "CC(/C=C1\SC(=S)N(CC(=O)O)C1=O)=C\c1ccccc1" , readout=cell viability) returns 100

Others:
The compound identified as "c1ccc2c(c1)OCC(=C1NCCN1)O2" registered its cell viability at 103

The measured values listed here are drawn from the supplement of paper PMC8671470.
